Target: Serine/threonine-protein kinase STK11 (Homo sapiens); further: in the data inactive means no Kd found up to 30 µM
Sequence (Q15831 whole entry): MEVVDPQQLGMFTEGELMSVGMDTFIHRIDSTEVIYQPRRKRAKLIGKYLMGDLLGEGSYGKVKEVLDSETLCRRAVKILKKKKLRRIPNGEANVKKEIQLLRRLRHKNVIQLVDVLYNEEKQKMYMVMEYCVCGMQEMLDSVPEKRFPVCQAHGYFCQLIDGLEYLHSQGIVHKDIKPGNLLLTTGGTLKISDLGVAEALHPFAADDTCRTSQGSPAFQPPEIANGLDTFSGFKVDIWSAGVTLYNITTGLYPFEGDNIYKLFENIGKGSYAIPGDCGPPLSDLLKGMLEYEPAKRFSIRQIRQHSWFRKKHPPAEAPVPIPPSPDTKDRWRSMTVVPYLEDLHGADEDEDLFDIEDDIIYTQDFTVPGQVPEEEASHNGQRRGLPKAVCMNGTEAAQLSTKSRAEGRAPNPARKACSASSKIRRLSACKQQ
Calls of active or inactive are those of the source.
Labels: active, inactive

- smiles.input: "O=C(Nc1ccc(OC(F)(F)F)cc1)c1sccc1NCc1ccnc2ccccc12"
  label.class: "inactive"
- smiles.input: "CNC(=O)c1ccc(Nc2ncc(C(F)(F)F)c(NCc3nccnc3N(C)S(C)(=O)=O)n2)cc1"
  label.class: "inactive"
- smiles.input: "COc1ccc2c(OCc3nnc4ccc(-c5ccccc5)nn34)ccnc2c1"
  label.class: "inactive"
- smiles.input: "CCN(CCCOc1ccc2c(Nc3cc(CC(=O)Nc4cccc(F)c4)n[nH]3)ncnc2c1)CCOP(=O)(O)O"
  label.class: "inactive"
- smiles.input: "COc1cc(F)c(F)c(Nc2ccc(I)cc2F)c1NS(=O)(=O)C1(C[C@H](O)CO)CC1"
  label.class: "inactive"
- smiles.input: "Cn1c(=O)n(-c2ccc(C(C)(C)C#N)cc2)c2c3cc(-c4cnc5ccccc5c4)ccc3ncc21"
  label.class: "inactive"
- smiles.input: "C[C@@H]1COC(Nc2ccc3ncnc(Nc4ccc(OCc5nccs5)c(Cl)c4)c3c2)=N1"
  label.class: "inactive"
- smiles.input: "CC1(COc2ccc3c(c2)ncn3-c2ccc3cccc(N4CCC(N)CC4)c3n2)COC1"
  label.class: "inactive"
- smiles.input: "COc1cc(Nc2ncc(F)c(Nc3ccc4c(n3)N(COP(=O)(O)O)C(=O)C(C)(C)O4)n2)cc(OC)c1OC"
  label.class: "inactive"
- smiles.input: "CNC(=O)c1cccc(-c2ccc3c(N4CCOC[C@@H]4C)nc(N4CCOC[C@@H]4C)nc3n2)c1"
  label.class: "inactive"
- smiles.input: "N#CCNC(=O)c1ccc(-c2ccnc(Nc3ccc(N4CCOCC4)cc3)n2)cc1"
  label.class: "inactive"
- smiles.input: "COc1cccc(Nc2ncnn3ccc(CN4CC[C@@H](N)[C@H](O)C4)c23)c1"
  label.class: "inactive"
- smiles.input: "CCOc1ccn(-c2ccc(F)cc2)c(=O)c1C(=O)Nc1ccc(Oc2ccnc(N)c2Cl)c(F)c1"
  label.class: "inactive"
- smiles.input: "FC(F)(F)c1ccc(CNc2ccc(Cc3c[nH]c4ncc(Cl)cc34)cn2)cn1"
  label.class: "inactive"
- smiles.input: "CN(c1ncccc1CNc1nc(Nc2ccc3c(c2)CC(=O)N3)ncc1C(F)(F)F)S(C)(=O)=O"
  label.class: "active"
- smiles.input: "S=C(NCc1ccc2c(c1)OCO2)N1CCN(c2ncnc3c2oc2ccccc23)CC1"
  label.class: "inactive"

These measurements were taken from ChEMBL document CHEMBL3991601.
